# protocol.summary: in vivo
# assay.setup: mouse, po, 10 mg/kg
Decide by AUC at 48 h: equal to or exceeding 20000 ng·h/mL means 1, less means -1.

>  <molecule>
COc1cc(O[C@H]2C(C)(C)[C@H](NC(=O)c3cnc(N4CCC(CN5CCc6c(ccc7c(C8CCC(=O)NC8=O)noc67)C5)CC4)cn3)C2(C)C)ccc1C#N (some centres unmarked) [Compound 5]

>  <class.name>
1

$$$$
>  <molecule>
COc1cc(O[C@H]2C(C)(C)[C@H](NC(=O)c3ccc(N4CCC(CN5CCc6ccc7c(C8CCC(=O)NC8=O)noc7c6CC5)CC4)cc3)C2(C)C)ccc1C#N (some centres unmarked) [Compound 10]

>  <class.name>
-1

$$$$
>  <molecule>
COc1cc(O[C@H]2C(C)(C)[C@H](NC(=O)c3cnc(N4CCC(CN5CCc6c(ccc7c(C8CCC(=O)NC8=O)noc67)C5)CC4)nc3)C2(C)C)ccc1C#N (some centres unmarked) [Compound 4]

>  <class.name>
1

$$$$
>  <molecule>
COc1cc(O[C@H]2C(C)(C)[C@H](NC(=O)c3ccc(N4CCC(CN5CCc6c(ccc7c(C8CCC(=O)NC8=O)noc67)C5)CC4)cc3)C2(C)C)ccc1C#N (some centres unmarked) [Compound 1]

>  <class.name>
1

$$$$
>  <molecule>
COc1cc(O[C@H]2C(C)(C)[C@H](NC(=O)c3ccc(N4CCC(CN5Cc6ccc7c(C8CCC(=O)NC8=O)noc7c6C5)CC4)cc3)C2(C)C)ccc1C#N (some centres unmarked) [Compound 8]

>  <class.name>
1

$$$$
